The values you see were collected from paper PMC12385147.

system: HCT116; test: Antiproliferation CCK-8 assay, HCT116; format: cell-based; conditions: Homo sapiens, HCT-116; CCK-8, 72 h; read-out: IC50 HCT116
pIC50: −log10 of the molar value.
# pIC50 listing for each entry below
quantity_kind: pIC50

>>> measurement("COc1cc2nccc(Oc3ccc(NC(=O)C4(C(=O)Nc5ccc(F)cc5)CC4)cc3)c2cc1OC [cabozantinib, reference compound]")
4.81
>>> measurement("Cc1c(C(=O)Nc2ccc(Oc3ccnc(Nc4cccc(OC5CCN(C)CC5)c4)n3)cc2)c(=O)n(-c2ccccc2)n1C [compound 17c]")
5.42

----------
assay: Pharmacokinetics in SD rats; format: in vivo; settings: both sexes, rat, plasma, po; SD rats, 10 mg/kg
quantity_kind: Tmax (h)

>>> measurement("Cc1c(C(=O)Nc2ccc(Oc3ccnc(Nc4cccc(OC5CCN(C)CC5)c4)n3)cc2)c(=O)n(-c2ccccc2)n1C [compound 17c]")
4
